# target_entity: hP2X2/3H (Homo sapiens, UniProt P56373+Q9UBL9)
# Construct: expressed in transfected cells; host or cells: e.g. HEK293 or 1321N1
# protocol_text: Calcium uptake assay (P2X antagonist assay), P2X2/3 heteromer
# Format: cell-based
# conditions: Ca influx (calcium uptake assay), hP2X2/3H; read-out: IC50 hP2X2/3H
# Experimental: The human P2X2/3 chimera clone is created as described by Neelands et al, and then cloned into an expression vector as above. […] Functional activity of compounds at the P2X receptor is determined by measuring their ability to inhibit agonist-induced calcium influx. […] At the start of each screening day, the agonist EC50 is determined. Compound % inhibition or IC50s are subsequently determined using a predetermined agonist concentration (EC50-90 depending on cell line) as a stimulus. […]
endpoint_name: IC50

Exercise: Find the measured IC50 of Cc1ccc(-c2cc(C(=O)NCc3ccc(C)nc3)cc(C(O)CO)c2)c(C#N)c1 (stereo not shown) [Compound 297] and report it.
Solution: 100 to 500 nM

Exercise: Determine its reported IC50: Cc1ccc(-c2cc(CN(C)C)cc(C(=O)N[C@H](C)c3ccc(C)nc3)c2)cc1 [Compound 340]
Solution: 100 to 500 nM

Exercise: Check the records and state IC50 for Cc1ccc(-c2cc(OCC3COCCO3)cc(C(=O)N[C@H](C)c3ccc(C)nc3)c2)c(C#N)c1 (stereo partly shown) [Compound 317]
Solution: < 100 nM

Exercise: Annotate the compound Cc1ccc(-c2cc(OC3COCC3O)cc(C(=O)N[C@H](C)c3cnc(C)nc3)c2)cc1 (stereo partly shown) [Compound 362] with its measured IC50.
Solution: < 100 nM

----------
# target_entity: hP2X2/3H (Homo sapiens, UniProt P56373+Q9UBL9)
# Construct: expressed in transfected cells; host or cells: e.g. HEK293 or 1321N1
# protocol_text: Calcium uptake assay (P2X antagonist assay), P2X2/3 heteromer
# Assay type: cell-based
# conditions: calcium uptake assay, hP2X2/3H; read-out: IC50 hP2X2/3H (nM), Ca Influx
Reported IC50 values follow for various compounds

Example compounds with recorded IC50:
Cc1ccc(-c2cc(C(=O)NCc3ncc(Cl)cc3Cl)cc(C(=O)N3CC(O)C3)c2)cc1: < 100 nM
Cc1ccc(-c2cc(C(=O)N[C@H](C)c3ccc(C(F)(F)F)nc3)cc(C(=O)N3CCCC3)c2)nc1: < 100 nM
Cc1ccc(-c2cc(C(=O)NCc3ccc(C)nc3)cc(C(=O)N3CC[C@H](O)C3)c2)cc1: 100 to 500 nM
Cc1ccc(-c2cc(C(=O)N[C@H](C)c3ccc(C)nc3)cc(S(C)(=O)=O)c2)cc1: < 100 nM
Cc1ccc(-c2cc(C(=O)NCc3cnc(C)nc3)cc(C(=O)N(C)CC(C)C)c2)cc1: < 100 nM
Cc1ccc(-c2cc(C#N)cc(C(=O)NCc3cnc(C)nc3)c2)nc1: > 1000 nM
Cc1ccc(-c2cc(C(=O)NCc3ccc(C(F)(F)F)nc3)cc(C(=O)N3CC[C@@H](O)C3)c2)cc1: 100 to 500 nM
Cc1ccc(-c2cc(C(=O)O)cc(C(=O)NCc3cnc(C)nc3)c2)cc1: > 1000 nM
Cc1ccc(-c2cc(C(=O)NCc3ccc(C)nc3)cc(C(=O)N(C)CC(F)(F)F)c2)cc1: < 100 nM
Cc1ccc(-c2cc(C(=O)N[C@H](C)c3cnc(C)nc3)cc(C(=O)N(C)CC(C)C)c2)cc1: < 100 nM

Exercise: Using the record for Cc1ccc(-c2cc(C(=O)N[C@H](C)c3cnc(C)nc3)cc(C(=O)N3CC[C@@H](O)C3)c2)cc1 , state its measured IC50.
Solution: < 100 nM

----------
Catalogue of compounds with associated IC50
# target_entity: hP2X3 (Homo sapiens, UniProt P56373)
# Construct: expressed in transfected cells; host or cells: e.g. HEK293 or 1321N1
# Sequence (P56373 1-397): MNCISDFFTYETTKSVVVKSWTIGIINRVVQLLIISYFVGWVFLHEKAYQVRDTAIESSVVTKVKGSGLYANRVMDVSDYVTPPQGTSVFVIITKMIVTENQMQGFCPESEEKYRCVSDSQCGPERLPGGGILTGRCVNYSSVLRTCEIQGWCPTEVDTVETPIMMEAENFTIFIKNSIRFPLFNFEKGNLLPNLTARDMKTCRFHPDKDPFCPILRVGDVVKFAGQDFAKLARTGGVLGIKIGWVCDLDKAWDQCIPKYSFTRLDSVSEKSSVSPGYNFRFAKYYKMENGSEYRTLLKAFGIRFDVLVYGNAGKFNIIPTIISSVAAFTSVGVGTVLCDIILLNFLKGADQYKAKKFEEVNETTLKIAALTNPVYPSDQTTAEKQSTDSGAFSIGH
# protocol_text: Calcium uptake assay (P2X antagonist assay), P2X3 homomer
# Type: cell-based
# conditions: calcium uptake assay, hP2X3; read-out: IC50 hP2X3 (nM), Ca Influx

Use the examples below as a reference point.
Cc1ccc(-c2cc(C(=O)NCc3ccc(C)nc3)cc(C(=O)N3CC(O)C3)c2)cc1: < 100 nM
Cc1ccc(-c2cc(C(=O)NCc3ccn4ccnc4c3)cc(C(=O)N(C)CC(C)C)c2)cc1: < 100 nM
Cc1ccc(-c2cc(C(=O)NCc3ccc(C(F)(F)F)nc3)cc(C(=O)N3CC(O)C3)c2)c(C#N)c1: < 100 nM
Cc1ccc(-c2cc(C(=O)NCc3ccc(C)nc3)cc(C(=O)N3CCN(c4nccs4)CC3)c2)cc1: < 100 nM
Cc1ccc(-c2cc(C(=O)NCc3ccc(C)nc3)cc(C(=O)N3CC[C@@H](NC(=O)OC(C)(C)C)C3)c2)cc1: 501 to 1000 nM

Exercise: Annotate the compound Cc1ccc(-c2cc(C(=O)NCc3ccc(Cl)nc3)cc(C(=O)N(C)CC(C)C)c2)cc1 with its measured IC50.
Solution: < 100 nM

Exercise: Tell me IC50 reported for Cc1ncc(CNC(=O)c2cc(C(=O)N3CCCC3)cc(-c3ccc(F)cc3F)c2)cn1
Solution: 100 to 500 nM

----------
Below: a set of entries, each annotated with reported IC50.
# target_entity: hP2X2/3H (Homo sapiens, UniProt P56373+Q9UBL9)
# Construct: expressed in transfected cells; host or cells: e.g. HEK293 or 1321N1
# Sequence (Q9UBL9 1-471): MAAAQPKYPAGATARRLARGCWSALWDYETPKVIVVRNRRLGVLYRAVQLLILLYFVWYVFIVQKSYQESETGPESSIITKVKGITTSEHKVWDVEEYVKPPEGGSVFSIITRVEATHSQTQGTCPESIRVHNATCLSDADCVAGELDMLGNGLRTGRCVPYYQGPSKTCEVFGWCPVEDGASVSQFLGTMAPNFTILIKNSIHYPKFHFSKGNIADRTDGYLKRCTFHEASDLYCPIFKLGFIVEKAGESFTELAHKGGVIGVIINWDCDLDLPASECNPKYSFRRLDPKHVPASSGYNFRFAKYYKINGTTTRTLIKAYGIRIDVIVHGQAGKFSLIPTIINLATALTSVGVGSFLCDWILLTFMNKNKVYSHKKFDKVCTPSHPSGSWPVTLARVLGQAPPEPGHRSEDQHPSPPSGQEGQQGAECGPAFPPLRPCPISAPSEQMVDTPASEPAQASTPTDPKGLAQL
# Sequence (P56373 1-397): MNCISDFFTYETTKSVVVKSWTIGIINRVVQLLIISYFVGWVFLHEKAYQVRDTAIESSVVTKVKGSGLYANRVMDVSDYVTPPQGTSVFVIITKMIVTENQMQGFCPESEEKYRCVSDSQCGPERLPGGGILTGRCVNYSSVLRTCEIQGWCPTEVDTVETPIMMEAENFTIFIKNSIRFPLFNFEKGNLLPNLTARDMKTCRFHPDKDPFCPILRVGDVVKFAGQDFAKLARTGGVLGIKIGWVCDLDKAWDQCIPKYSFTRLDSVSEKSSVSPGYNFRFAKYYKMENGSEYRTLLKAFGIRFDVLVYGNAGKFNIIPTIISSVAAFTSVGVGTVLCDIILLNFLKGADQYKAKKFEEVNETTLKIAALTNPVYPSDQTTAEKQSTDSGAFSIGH
# protocol_text: Calcium uptake assay (P2X antagonist assay), P2X2/3 heteromer
# Format: cell-based
# conditions: calcium uptake assay, hP2X2/3H; read-out: IC50 hP2X2/3H (nM), Ca Influx

Cc1ccc(CNC(=O)c2cc(-c3ccc(Cl)cc3)cc(S(C)(=O)=O)c2)cn1: 100 to 500 nM
Cc1ccc(CNC(=O)c2cc(-c3ccc(Cl)c(F)c3)cc(S(C)(=O)=O)c2)cn1: > 1000 nM
Cc1ccc(-c2cc(C(=O)N[C@H](C)c3cnc(C)nc3)cc(S(=O)(=O)N3CCCC3)c2)c(C#N)c1: > 1000 nM
Cc1ccc(-c2cc(C(=O)N[C@@H](C)CO)cc(C(=O)N(C)CC(C)C)c2)cc1: 100 to 500 nM
Cc1ccc(-c2cc(C(=O)N[C@H](C)c3cnc(C)nc3)cc(C(=O)N3CC(O)C3)c2)cc1: < 100 nM

Exercise: Give IC50 for the following molecule: Cc1ccc(-c2cc(C(=O)NCc3ccn4ccnc4c3)cc(C(=O)N3CCCC3)c2)cc1
Solution: < 100 nM

Exercise: Assign IC50 to the following record: Cc1ccc(-c2cc(C(=O)NCc3ccc(C)nc3)cc(C(=O)N3C(C)CCC3C)c2)cc1 (centres unmarked)
Solution: < 100 nM

Exercise: Specify measured IC50 for COc1ncc([C@@H](C)NC(=O)c2cc(C(=O)N3CC(O)C3)cc(-c3ccc(C)cc3)c2)cn1 .
Solution: 100 to 500 nM

Provenance of the data: patent US8946439B2
